Target: human IL-17AA (Homo sapiens, UniProt Q16552)
Sequence (Q16552 24-155): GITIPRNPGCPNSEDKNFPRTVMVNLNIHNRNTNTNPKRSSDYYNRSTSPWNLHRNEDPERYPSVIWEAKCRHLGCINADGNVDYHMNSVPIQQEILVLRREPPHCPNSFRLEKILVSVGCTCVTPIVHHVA
Assay: IL-8 release assay in human epithelial keratinocytes adult (HEKa)
Conditions: HEKa cells, 3 ng/mL HEK-human IL-17AA + 10 ng/mL human TNFalpha; read-out: Rel EC50 IL-8 release assay
pEC50: −log10 of the molar value.

Molecule: Cn1cncc1-c1ccc(NC(=O)[C@H](Cc2cc(C#N)ccc2Cl)NC(=O)OC(C)(C)C)cc1
Target under test: human IL-17AA (Homo sapiens, UniProt Q16552)
pEC50: < 6.00
//
Molecule: Cc1n[nH]c(C)c1-c1ccc(NC(=O)[C@@H](NC(=O)c2ccnn2C(C)CO)[C@H]2CC[C@H](C)CC2)cc1 (single isomer, unassigned) [Example 205]
Target under test: human IL-17AA (Homo sapiens, UniProt Q16552)
pEC50: > 7.00
//
Molecule: Cc1n[nH]c(C)c1-c1ccc(NC(=O)[C@@H](NC(=O)c2ccnn2[C@@H](C)CO)C(C2CC2)C2CC2)cc1 (single isomer, unassigned)
Target under test: human IL-17AA (Homo sapiens, UniProt Q16552)
pEC50: > 7.00

====

Biological target: human IL-17AA (Homo sapiens)
Assay: IL-8 release assay in human epithelial keratinocytes adult (HEKa)
Conditions: HEKa cells, 3 ng/mL HEK-human IL-17AA + 10 ng/mL human TNFalpha; read-out: Rel EC50 IL-8 release assay
In this section, each of the compounds is paired with its reported EC50.
Endpoint label: EC50

Compound: Cc1n[nH]c(C)c1-c1ccc(NC(=O)[C@@H](NC(=O)c2ccnn2C(C)C)[C@@H]2CC(C)(C)CCC2(F)F)cc1 [Example 212]
Obs value: < 100 nM
//
Compound: CCn1nccc1C(=O)N[C@H](C(=O)Nc1ccc(-c2c(C)n[nH]c2C)cc1)[C@@H]1CC2(CC2)CCC1(F)F [Example 180]
Obs value: < 100 nM
//
Compound: Cc1n[nH]c(C)c1-c1ccc(NC(=O)[C@@H](NC(=O)c2nccn2C)C2CCCCC2)cc1 [Example 275]
Obs value: > 1000 nM
//
Compound: Cc1n[nH]c(C)c1-c1ccc(NC(=O)[C@@H](NC(=O)c2ccnn2C(C)C)[C@H]2CCOc3cc(F)ccc32)cc1 [Example 288]
Obs value: < 100 nM
//
Compound: Cc1[nH]ncc1-c1ccc(NC(=O)[C@@H](NC(=O)c2ccnn2C)C(c2ccccc2)c2ccccc2)cc1 [Example 400]
Obs value: 100 to 1000 nM
//
Compound: Cc1n[nH]c(C)c1-c1ccc(NC(=O)[C@@H](NC(=O)c2ccnn2C)[C@H]2CCc3ccc(Br)cc32)cc1 [Example 5]
Obs value: < 100 nM
//
Compound: Cc1n[nH]c(C)c1-c1ccc(NC(=O)C(NC(=O)c2ccnn2C(C)C)C2CCCCCCC2)cc1 (single isomer, unassigned) [Example 153]
Obs value: 100 to 1000 nM
//
Compound: Cc1n[nH]c(C)c1-c1ccc(NC(=O)[C@@H](NC(=O)OCCCCO)C(C2CC2)C2CC2)cc1 [Example 479]
Obs value: 100 to 1000 nM
//
Compound: Cc1[nH]nc(C(C)(C)O)c1-c1ccc(NC(=O)[C@@H](NC(=O)OC(C)(C)C)C2CCCCC2)cc1 [Example 436]
Obs value: > 1000 nM
//
Compound: Cc1n[nH]c(C)c1-c1ccc(NC(=O)[C@@H](NC(=O)c2cnnn2C)C2CCCCC2)cc1 [Example 60]
Obs value: 100 to 1000 nM
//
Compound: CC(C)n1nccc1C(=O)N[C@H](C(=O)Nc1ccc(-c2ncn(C)c2C(F)(F)F)cc1)C1CCCCC1 [Example 371B]
Obs value: > 1000 nM
//
Compound: Cc1n[nH]c(C)c1-c1ccc(NC(=O)[C@@H](NC(=O)c2ccnn2C(C)CO)C2C3CC4CC(C3)CC2C4)cc1 (single isomer, unassigned) [Example 188]
Obs value: < 100 nM
//
Compound: Cc1n[nH]c(C)c1-c1ccc(NC(=O)[C@@H](NC(=O)c2ccnn2C(C)C)C(C)C2CCC2)cc1 (single isomer, unassigned) [Example 190]
Obs value: < 100 nM
//
Compound: Cc1n[nH]c(C)c1-c1ccc(NC(=O)[C@@H](NC(=O)c2ccnn2C)[C@H]2CCc3c(F)cc(F)cc32)cc1 [Example 249]
Obs value: < 100 nM
//
Compound: Cc1n[nH]c(C)c1-c1ccc(NC(=O)[C@@H](NC(=O)c2ncnn2C)C(C2CC2)C2CC2)cc1 [Example 163]
Obs value: > 1000 nM
//
Compound: Cc1nocc1C(=O)N[C@H](C(=O)Nc1ccc(-c2c(C)n[nH]c2C)cc1)C(C1CCC1)C1CCC1 [Example 274]
Obs value: < 100 nM
//
Compound: Cc1n[nH]c(C)c1-c1ccc(NC(=O)[C@@H](NC(=O)N2CCCC2C(C)C)C2CCCCC2)cc1 (stereo partly drawn) [Example 475]
Obs value: > 1000 nM
//
Compound: CCn1nccc1C(=O)N[C@H](C(=O)Nc1ccc(-c2c(C)n[nH]c2C)cc1)[C@@H]1CC(C)(C)CCC1(F)F [Example 213]
Obs value: < 100 nM
